Value source: patent US20250197467A1

Overview of recorded Hek Blue reporter assay EC50 for various binders
tested on: T1, IL-18 receptor (IL-18Rαβ) on cells (UniProt Q13478 19-541; O95256 20-599, limits assumed)
T1 sequence (looked up) 1: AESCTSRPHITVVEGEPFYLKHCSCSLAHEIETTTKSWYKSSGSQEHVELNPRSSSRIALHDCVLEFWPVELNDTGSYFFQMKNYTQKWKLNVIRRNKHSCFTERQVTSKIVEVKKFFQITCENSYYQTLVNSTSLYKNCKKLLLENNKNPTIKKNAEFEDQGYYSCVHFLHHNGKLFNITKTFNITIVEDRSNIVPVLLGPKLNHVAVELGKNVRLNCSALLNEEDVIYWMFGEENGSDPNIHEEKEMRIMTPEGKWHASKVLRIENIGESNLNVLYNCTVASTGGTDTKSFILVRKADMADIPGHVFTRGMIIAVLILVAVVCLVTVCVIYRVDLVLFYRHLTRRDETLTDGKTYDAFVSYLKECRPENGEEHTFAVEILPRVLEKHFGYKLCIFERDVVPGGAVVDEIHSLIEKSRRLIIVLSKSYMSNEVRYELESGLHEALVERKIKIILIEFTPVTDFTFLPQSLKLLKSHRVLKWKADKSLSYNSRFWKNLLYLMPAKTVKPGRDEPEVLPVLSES
T1 sequence (looked up) 2: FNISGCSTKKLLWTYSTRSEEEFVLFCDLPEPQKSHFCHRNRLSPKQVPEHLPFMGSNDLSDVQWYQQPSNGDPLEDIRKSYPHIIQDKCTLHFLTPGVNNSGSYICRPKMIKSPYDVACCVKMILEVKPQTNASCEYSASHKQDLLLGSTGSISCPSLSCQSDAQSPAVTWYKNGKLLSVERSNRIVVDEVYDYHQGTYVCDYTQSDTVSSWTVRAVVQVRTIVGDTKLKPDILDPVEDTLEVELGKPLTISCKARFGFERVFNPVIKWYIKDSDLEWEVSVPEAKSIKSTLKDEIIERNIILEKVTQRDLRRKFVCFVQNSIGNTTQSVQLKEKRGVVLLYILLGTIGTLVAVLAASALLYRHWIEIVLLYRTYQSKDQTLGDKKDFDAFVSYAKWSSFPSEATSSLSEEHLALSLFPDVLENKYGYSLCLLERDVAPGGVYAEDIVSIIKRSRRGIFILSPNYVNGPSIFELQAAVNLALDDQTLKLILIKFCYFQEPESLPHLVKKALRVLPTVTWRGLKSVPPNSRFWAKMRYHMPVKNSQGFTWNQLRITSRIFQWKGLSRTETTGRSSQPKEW
procedure text: cell-based or functional assay

# binder, test readout, experimental result
rows = [
    ("C185 (ligand) MAAEPVEDNCINFVAMKFIDNTLYFIAEDDENLESDPLGYFGKLKSKLSIIRNLNDQVLFIDQGNRPLFEDMTDSDARDNAPRTIFIISMYADSQPRGMAVAISVKCEKISTLSAENKIISFKEMNPPDNIKDTKSDIIFFQRSVPGHDNKMQFESSSYEGYFLAAEKERDLFKLILKKEDELGDRSIMFTVQNED", "Hek Blue reporter assay EC50", "2.79 nM"),
    ("C173 (ligand) YFGKLKSKLSIIRNLNDQVLFIDQGNRPLFEDMTDSDARDNAPRTIFIISMYADSQPRGMAVAISVKCEKISTLSAENKIISFKEMNPPDNIKDTKSDIIFFQRSVPGHDNKMQFESSSYEGYFLAAEKERDLFKLILKKEDELGDRSIMFTVQNEPLGLAGSNIVPVLLGPKLNHVAVELGKNVRLNCSALLNEEDVIYWMFGEENGSDPNIHEEKEMRIMTPEGKWHASKVLRIENIGESNLNVLYNCTVASTGGTDTKSFILVRKADHHHHHH", "Hek Blue reporter assay EC50", "0.00013 nM"),
    ("C189 (ligand) YFGKLKSKLSIIRNLNDQVLFIDQGNRPLFEDMTDSDARDNAPRTIFIISMYADSQPRGMAVAISVKCEKISTLSAENKIISFKEMNPPDNIKDTKSDIIFFQRSVPGHDNKMQFESSSYEGYFLAAEKERDLFKLILKKEDELGDRSIMFTVQNESGGPGPAGMKGLPGSNIVPVLLGPKLNHVAVELGKNVRLDCSALLNEEDVIYWMFGEEDGSDPNIHEEKEMRIMTPEGKWHASKVLRIENIGESNLNVLYDCTVASTGGTDTKSFILVRKADHHHHHH", "Hek Blue reporter assay EC50", "0.00043 nM"),
    ("C187 (ligand) MAAEPVEDNCINFVAMKFIDNTLYFIAEDDENLESDPLGLAGYFGKLKSKLSIIRNLNDQVLFIDQGNRPLFEDMTDSDARDNAPRTIFIISMYADSQPRGMAVAISVKCEKISTLSAENKIISFKEMNPPDNIKDTKSDIIFFQRSVPGHDNKMQFESSSYEGYFLAAEKERDLFKLILKKEDELGDRSIMFTVQNED", "Hek Blue reporter assay EC50", "1.24 nM"),
]

// query Hek Blue reporter assay EC50 value for entry C314 (ligand) MAAEPVEDNAINFVAMKFIDNTLYFIAEDDENLESDPLGYFGKLKSKLSIIRNLNDQVLFIDQGNRPLFEDMTDSDARDNAPRTIFIISMYADSQPRGMAVAISVKCEKISTLSAENKIISFKEMNPPDNIKDTKSDIIFFQRSVPGHDNKMQFESSSYEGYFLAAEKERDLFKLILKKEDELGDRSIMFTVQNED
// result 4 nM

// query Hek Blue reporter assay EC50 value for entry C190 (ligand) MAAEPVEDNCINFVAMKFIDNTLYFIAEDDENLESDYFGKLKSKLSIIRNLNDQVLFIDQGNRPLFEDMTDSDARDNAPRTIFIISMYADSQPRGMAVAISVKCEKISTLSAENKIISFKEMNPPDNIKDTKSDIIFFQRSVPGHDNKMQFESSSYEGYFLAAEKERDLFKLILKKEDELGDRSIMFTVQNED
// result 0.404 nM
